tested on: Ca-Ski (Cervical Carcinoma); assay: combination Emax (second highest fraction inhibited in the dose matrix, 72 h); higher = more inhibition; extreme values may be limits of the assay
Here, each record is paired with measured combination Emax data.
measured-property: combination Emax

molecule | assayed-target | measured
COc1cccc(OCCCN)c1-c1cc(Nc2cnc(C#N)cn2)n[nH]1 [Prexasertib] + O=C(c1cc(Cc2n[nH]c(=O)c3ccccc23)ccc1F)N1CCN(C(=O)C2CC2)CC1 [Olaparib] (first compound max 1 µM, 7x7, partner max 10 µM) | Ca-Ski (Cervical Carcinoma) | 0.787
NC1(C(=O)N[C@@H](CCO)c2ccc(Cl)cc2)CCN(c2ncnc3[nH]ccc23)CC1 [Capivasertib] + CC(C)n1c(=O)n(C)c2cnc3cc(F)c(-c4ccc(OCCCN5CCCCC5)nc4)cc3c21 [AZD1390] (first compound max 10 µM, 7x7, partner max 0.3 µM) | Ca-Ski (Cervical Carcinoma) | 0.433
NC1(C(=O)N[C@@H](CCO)c2ccc(Cl)cc2)CCN(c2ncnc3[nH]ccc23)CC1 [Capivasertib] + CC(=O)c1c(C)c2cnc(Nc3ccc(N4CCNCC4)cn3)nc2n(C2CCCC2)c1=O [Palbociclib] (first compound max 10 µM, 7x7, partner max 10 µM) | Ca-Ski (Cervical Carcinoma) | 0.462

###

test system: A4-Fuk (B-Lymphoblastic Leukemia); test: Bliss excess, mean over the matrix (fraction); higher = more synergy

compound | Bliss excess
CC1(C)CCC(CN2CCN(c3ccc(C(=O)NS(=O)(=O)c4ccc(NCC5CCOCC5)c([N+](=O)[O-])c4)c(Oc4cnc5[nH]ccc5c4)c3)CC2)=C(c2ccc(Cl)cc2)C1 [Venetoclax] + CN(C)CCCOc1ccc(-c2ccc3ncc4c(c3c2)n(C2CCOCC2)c(=O)n4C)cn1 [AZD0156] (first compound max 1 µM, 7x7, partner max 1 µM) | 0.0004
C=CCn1c(=O)c2cnc(Nc3ccc(N4CCN(C)CC4)cc3)nc2n1-c1cccc(C(C)(C)O)n1 [AZD1775] + CCc1c2c(nc3ccc(O)cc13)-c1cc3c(c(=O)n1C2)COC(=O)[C@]3(O)CC [SN-38] (first compound max 1 µM, partner max 0.3 µM) | -0.0617

###

test system: NCI-H1355 (Lung Adenocarcinoma); assay: Bliss excess, mean over the matrix (fraction); higher = more synergy
Here, each record is paired with measured Bliss excess data.
measured-property: Bliss excess

molecule | measured
Cc1c2c(nn1C)CSCc1cc(n(C)n1)CSc1cc(c3ccccc3c1)OCCCc1c(C(=O)O)n(C)c3c-2c(Cl)ccc13 [AZD5991] + Cc1cc2ncnn2cc1Nc1ncc2c(n1)n(C1CCOCC1)c(=O)n2C [AZD7648] (first compound max 1 µM, 7x7, partner max 10 µM) | -0.0055
CS(=O)(=O)CCNCc1ccc(-c2ccc3ncnc(Nc4ccc(OCc5cccc(F)c5)c(Cl)c4)c3c2)o1 [Lapatinib] + C[C@@H](Oc1cc(-c2cnn(C3CCNCC3)c2)cnc1N)c1c(Cl)ccc(F)c1Cl [Crizotinib] (first compound max 10 µM, 7x7, partner max 10 µM) | -0.0141
Cc1c2c(nn1C)CSCc1cc(n(C)n1)CSc1cc(c3ccccc3c1)OCCCc1c(C(=O)O)n(C)c3c-2c(Cl)ccc13 [AZD5991] + CC(=O)O[C@H]1C(=O)[C@@]2(C)[C@H]([C@H](OC(=O)c3ccccc3)[C@]3(O)C[C@H](OC(=O)[C@H](O)[C@@H](NC(=O)c4ccccc4)c4ccccc4)C(C)=C1C3(C)C)[C@]1(OC(C)=O)CO[C@@H]1C[C@@H]2O [Paclitaxel] (first compound max 1 µM, 7x7, partner max 3 µM) | -0.0431
CC(=O)c1c(C)c2cnc(Nc3ccc(N4CCNCC4)cn3)nc2n(C2CCCC2)c1=O [Palbociclib] + Cn1cnc2c(F)c(Nc3ccc(Br)cc3Cl)c(C(=O)NOCCO)cc21 [Selumetinib] (first compound max 10 µM, 7x7, partner max 10 µM) | 0.0542
CN(CCO)CC[C@H](CSc1ccccc1)Nc1ccc(S(=O)(=O)NC(=O)c2ccc(N3CCC([C@@H](O)c4ccccc4-c4ccc(Cl)cc4)CC3)cc2)cc1S(=O)(=O)C(F)(F)F [AZD4320] + Nc1ccn([C@@H]2O[C@H](CO)[C@@H](O)C2(F)F)c(=O)n1 [Gemcitabine] (first compound max 1 µM, 7x7, partner max 0.3 µM) | -0.0349
O=C(c1cc(Cc2n[nH]c(=O)c3ccccc23)ccc1F)N1CCN(C(=O)C2CC2)CC1 [Olaparib] + CC1(C)CCC(CN2CCN(c3ccc(C(=O)NS(=O)(=O)c4ccc(NCC5CCOCC5)c([N+](=O)[O-])c4)c(Oc4cnc5[nH]ccc5c4)c3)CC2)=C(c2ccc(Cl)cc2)C1 [Venetoclax] (first compound max 10 µM, 7x7, partner max 1 µM) | -0.0524
